# Experimental target: human LAG3 expressed on cells (human) (UniProt P18627)
# Sequence (P18627 23-525): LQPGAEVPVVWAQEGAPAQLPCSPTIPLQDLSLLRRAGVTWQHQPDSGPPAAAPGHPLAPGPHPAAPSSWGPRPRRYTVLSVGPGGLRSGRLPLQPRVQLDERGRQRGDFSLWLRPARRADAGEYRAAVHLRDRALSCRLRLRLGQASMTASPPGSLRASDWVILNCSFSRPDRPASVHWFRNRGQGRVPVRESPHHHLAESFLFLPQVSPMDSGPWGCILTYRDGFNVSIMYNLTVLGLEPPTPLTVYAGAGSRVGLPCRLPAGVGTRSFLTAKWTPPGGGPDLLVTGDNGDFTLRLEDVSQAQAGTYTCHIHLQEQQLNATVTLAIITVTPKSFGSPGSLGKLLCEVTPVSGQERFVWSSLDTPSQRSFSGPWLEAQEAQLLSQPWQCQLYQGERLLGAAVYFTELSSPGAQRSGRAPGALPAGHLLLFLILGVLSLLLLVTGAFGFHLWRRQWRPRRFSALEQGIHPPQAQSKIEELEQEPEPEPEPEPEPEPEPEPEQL
# Test protocol: cell-based or functional assay
Consider the following binders and their measured Jurkat T-hLAG3 Assay EC50 readings.
Readout: Jurkat T-hLAG3 Assay EC50 (nM)

Binder | Measured
sdAb fusion 25-17-2 (Fc fusion, not shown: a dimerising Fc or GST) QLQLVESGGGLVQAGGSLRLSCAASGSIESFSFMGWYRQAPGKQRELVAGFTGAASLSFSTYTDAVKGRFTISRDNAKNTVYLQMNSLKPEDTAVYFCNVDPWSQSWPGRYWGQGTQVTVSSGGGGSGGGGSQLQLVESGGGLVQPGGSLRLSCAASGLTLDGYAIGWFRQAPGKEREGLACISGSDGSTHYLDSVKGRFTISRDNGKNTMALQMNSLQFGDTAIYYCAARRGSCSGSWTYWGQGTQVTVSSEPKSCDKTHTCPPCPAPELLG | 14
sdAb fusion 25-2015-1 (Fc fusion, not shown: a dimerising Fc or GST) QLQLVESGGGLVQAGGSLRLSCAASGSIESFSFMGWYRQAPGKQRELVAGFTGAASLSFSTYTDAVKGRFTISRDNAKNTVYLQMNSLKPEDTAVYFCNVDPWSQSWPGRYWGQGTQVTVSSGGGGSQLQLVESGGGLAQTGGSLRLSCAAAGFTFDDTATGWFRQAPGKNREGVACISSSDGRIHYIDSAKGRFTISKDNAKKTVYLQMDSLKPEDTAVYYCAAARKGSTDCQGAIWGSWGQGTQVIVSSEPKSCDKTHTCPPCPAPELLG | 8.01
sdAb fusion 25-17-1 (Fc fusion, not shown: a dimerising Fc or GST) QLQLVESGGGLVQAGGSLRLSCAASGSIESFSFMGWYRQAPGKQRELVAGFTGAASLSFSTYTDAVKGRFTISRDNAKNTVYLQMNSLKPEDTAVYFCNVDPWSQSWPGRYWGQGTQVTVSSGGGGSQLQLVESGGGLVQPGGSLRLSCAASGLTLDGYAIGWFRQAPGKEREGLACISGSDGSTHYLDSVKGRFTISRDNGKNTMALQMNSLQFGDTAIYYCAARRGSCSGSWTYWGQGTQVTVSS | 10.9
sdAb fusion 25-2015-2 (Fc fusion, not shown: a dimerising Fc or GST) QLQLVESGGGLVQAGGSLRLSCAASGSIESFSFMGWYRQAPGKQRELVAGFTGAASLSFSTYTDAVKGRFTISRDNAKNTVYLQMNSLKPEDTAVYFCNVDPWSQSWPGRYWGQGTQVTVSSGGGGSGGGGSQLQLVESGGGLAQTGGSLRLSCAAAGFTFDDTATGWFRQAPGKNREGVACISSSDGRIHYIDSAKGRFTISKDNAKKTVYLQMDSLKPEDTAVYYCAAARKGSTDCQGAIWGSWGQGTQVIVSSEPKSCDKTHTCPPCPAPELLG | 5.13
sdAb fusion 25-17-3 (Fc fusion, not shown: a dimerising Fc or GST) QLQLVESGGGLVQAGGSLRLSCAASGSIESFSFMGWYRQAPGKQRELVAGFTGAASLSFSTYTDAVKGRFTISRDNAKNTVYLQMNSLKPEDTAVYFCNVDPWSQSWPGRYWGQGTQVTVSSGGGGSGGGGSGGGGSQLQLVESGGGLVQPGGSLRLSCAASGLTLDGYAIGWFRQAPGKEREGLACISGSDGSTHYLDSVKGRFTISRDNGKNTMALQMNSLQFGDTAIYYCAARRGSCSGSWTYWGQGTQVTVSSEPKSCDKTHTCPPCPAPELLG | 18.4
sdAb fusion 25-2015-3 (Fc fusion, not shown: a dimerising Fc or GST) QLQLVESGGGLVQAGGSLRLSCAASGSIESFSFMGWYRQAPGKQRELVAGFTGAASLSFSTYTDAVKGRFTISRDNAKNTVYLQMNSLKPEDTAVYFCNVDPWSQSWPGRYWGQGTQVTVSSGGGGSGGGGSGGGGSQLQLVESGGGLAQTGGSLRLSCAAAGFTFDDTATGWFRQAPGKNREGVACISSSDGRIHYIDSAKGRFTISKDNAKKTVYLQMDSLKPEDTAVYYCAAARKGSTDCQGAIWGSWGQGTQVIVSSEPKSCDKTHTCPPCPAPELLG | 8.01
